# Test system: Escherichia coli TOP10;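 note: peptides expressed intracellularly from a pBAD plasmid library in pooled LB shake-flask culture, induced with 0.3% L-arabinose, DNA abundance read by NGS, three biological replicates, DESeq2 with apeglm shrinkage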
# method-description: shrunken log2 fold change of peptide-encoding DNA abundance (4.5 h post-induction vs induction); higher = less antimicrobial activity (less host growth inhibition)
# run-conditions: time post-induction: 4.5 h; library: site-saturation at positions 5, 18, 19, 20
Some sequences, each annotated with its measured shrunken log2 fold change.
endpoint: shrunken log2 fold change

residue-codes | numeric-readout
RRIRQRPPRLPRPRPRPHAGPRP | -0.084
RRIRKRPPRLPRPRPRPGQQPRP | 0.0114
RRIRGRPPRLPRPRPRPNPCPRP | 0.102
RRIRNRPPRLPRPRPRPFDDPRP | -0.00192
RRIRWRPPRLPRPRPRPETFPRP | 0.0493
RRIRIRPPRLPRPRPRPPSRPRP | 0.231
RRIRMRPPRLPRPRPRPCLTPRP | 0.000866
RRIRSRPPRLPRPRPRPKNEPRP | -0.011
RRIRFRPPRLPRPRPRPLAKPRP | 0.182
RRIRLRPPRLPRPRPRPPSIPRP | -0.0597
RRIRNRPPRLPRPRPRPSIIPRP | -0.856
RRIRVRPPRLPRPRPRPDYSPRP | -0.107
RRIRARPPRLPRPRPRPLDEPRP | 1.53
RRIRPRPPRLPRPRPRPIHRPRP | -0.0135
RRIRFRPPRLPRPRPRPCSMPRP | -0.343

Every entry's value here was drawn from the supplement of paper PMC9112550.
